Reference source for all entries: patent EP2371816A1

- Tested on: cerebral oxidative stress induced in mice by doxorubicin
- procedure_text: In vivo assay of cerebral oxidative stress induced in mice by doxorubicin
- test_context: % variation relative to the vehicle, healthy animals, 50 mg/kg IP x3 days (D = doxorubicin alone)
Measured Brain/BWi, listed per entry.
State just the number; it will be interpreted in %.

> print(dat)
                                   molecule                               test.system  unit.info  readout.value
1              CC1(C)CC(=O)C=C(NN2CCCCC2)C1  cerebral oxidative stress induced in mice by doxorubicin          %           -2.5
2          CC1(C)CC(=O)C=C(N(O)Cc2cccnc2)C1  cerebral oxidative stress induced in mice by doxorubicin          %           -0.1
3  O=C1C=C(NCCN2CCCCC2)CC(c2ccccc2)C1 (stereo not drawn)  cerebral oxidative stress induced in mice by doxorubicin          %            1.0
4  CC1=NN(c2ccccc2)C(=O)C1 [edaravone, reference compound]  cerebral oxidative stress induced in mice by doxorubicin          %            2.7
5          CC1(C)CC(=O)C=C(N(O)Cc2ccccn2)C1  cerebral oxidative stress induced in mice by doxorubicin          %           -3.3

Switching to the query record.
Exercise: For cerebral oxidative stress induced in mice by doxorubicin, give Brain/BWi of the listed molecule: CC1(C)CC(=O)C=C(NCCN2CCCCC2)C1
Solution: -3.2
